This collection of values is drawn from PubChem BioAssay AID1159580.

Test: chemical genetic growth profiling, strain panel (AID 1159580);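 note: tested at 20 µM; growth read once vehicle control cultures reached saturation at 30 °C; 1 = growth at the plate median or of vehicle wells; lower values mean less growth of the strain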
Conditions: S. cerevisiae deletion strains, growth OD, locus YLR371W, strain rom2, stronger effect = lower value
About 2,000 (36%) of roughly 5,500 compounds were called active. Roughly 18% stayed inconclusive and do not appear here. This is one part of the list.
Property Measured: normalized growth
Lab note: write the figure by itself, no unit.

The cases that follow already have their normalized growth on record.
CC(C(=O)O)c1cccc(C(=O)c2ccccc2)c1 (stereo not given)
0.978
CCS(=O)CCSP(=O)(OC)OC (stereo not given)
0.999
CC(C(=O)O)c1ccc(-c2ccccc2)c(F)c1 (stereo not given)
0.996

With those in mind, consider the next compound.
## Task Provide measured normalized growth value, entry: C=C(C)[C@@H]1[C@H]2OC(=O)[C@@H]1[C@]1(O)C[C@H]3O[C@]34C(=O)O[C@H]2[C@]14C
## Result 0.988

====

Listing of recorded normalized growth by entry.
Assay: chemical genetic growth profiling, strain panel (AID 1159580);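 note: tested at 20 µM; growth read once vehicle control cultures reached saturation at 30 °C; 1 = growth at the plate median or of vehicle wells; lower values mean less growth of the strain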
Details: S. cerevisiae deletion strains, growth OD, locus YNL322C, strain KRE1 (second series), stronger effect = lower value
The campaign covered roughly 5,500 compounds. About 2,000 (36%) were called active. Inconclusive results (about 18%) are left out. Some of the results follow.
In your answer, state the number alone without any accompanying words.

CNC(C)[C@H](O)c1ccccc1 (some centres not stated)
1.01
NCCSSCCN
0.998

## Task Given COc1cc2c(cc1OC)[C@@H]1C(=O)c3ccc(OC)c(CC=C(C)C)c3O[C@@H]1CO2 , respond with its normalized growth.
## Result 1.01

## Task Recall and state the measured normalized growth for NC(=O)C(c1ccccc1)(c1ccccc1)C1CCN(CCc2ccc3c(c2)CCO3)C1 (configuration not stated) .
## Result 1.04

## Task Please give measured normalized growth of the following entry: ClC1=C(Cl)C2(Cl)C3C(Cl)C=CC3C1(Cl)C2(Cl)Cl (configuration not stated)
## Result 0.982

## Task Report normalized growth for CCCCCCCCNC(C)C(O)c1ccc(SC(C)C)cc1 (configuration not stated)
## Result 0.0644

## Task Note down normalized growth recorded for CN(C)CC/C=C1\c2ccccc2Sc2ccc(Cl)cc21
## Result 1.03

## Task Kindly indicate its recorded normalized growth. Item: CN1CCc2cc3c(cc2[C@H]1C1OC(=O)c2c1ccc1c2OCO1)OCO3 (some centres not stated)
## Result 0.987

## Task Give the reported normalized growth for this molecule. CCOC(=O)C(C)(C)Oc1ccc(Cl)cc1
## Result 0.973

## Task Answer with the recorded normalized growth for the molecule listed here: CN1CCC(=C2c3ccccc3Sc3ccccc32)CC1
## Result 1.03

## Task Provide one value: measured normalized growth of CC(N)C(=O)OC(C)(C)Cc1ccc(Cl)cc1 (configuration not stated)
## Result 1.01

====

normalized growth overview
Assay: chemical genetic growth profiling, strain panel (AID 1159580);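 note: tested at 20 µM; growth read once vehicle control cultures reached saturation at 30 °C; 1 = growth at the plate median or of vehicle wells; lower values mean less growth of the strain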
Conditions: S. cerevisiae deletion strains, growth OD, locus YDR195W, strain ref2
Hit rate of the full screen: of about 5,500 compounds, about 2,000 (36%) were called active. About 18% were inconclusive and are not listed. This is one part of the list.
No unit in the answer, please; the number alone is enough.

CC(C(=O)O)c1ccc(-c2ccccc2)c(F)c1 (stereo unspecified)
0.985
O=C(O)C1(O)C[C@@H](O)C(O)[C@H](O)C1 (stereo partly specified)
0.959
Cc1[nH]c(C)c(Cl)c(=O)c1Cl
0.962
COc1cc(O)c(C(=O)/C=C/c2ccc(O)c(OC)c2)c(OC)c1
0.972

## Task Quote normalized growth reported for CC(C)OC(=O)C(C)(C)Oc1ccc(C(=O)c2ccc(Cl)cc2)cc1 please.
## Result 0.982

## Task Quote normalized growth reported for CC(N)C(=O)OC(C)(C)Cc1ccc(Cl)cc1 (stereo unspecified) please.
## Result 0.97
